Source listed as patent US11084842B2.

# Target under test: human SGLT1 (Homo sapiens)
# Construct: mock-transfected cells as control)
# Sequence (P13866 whole entry): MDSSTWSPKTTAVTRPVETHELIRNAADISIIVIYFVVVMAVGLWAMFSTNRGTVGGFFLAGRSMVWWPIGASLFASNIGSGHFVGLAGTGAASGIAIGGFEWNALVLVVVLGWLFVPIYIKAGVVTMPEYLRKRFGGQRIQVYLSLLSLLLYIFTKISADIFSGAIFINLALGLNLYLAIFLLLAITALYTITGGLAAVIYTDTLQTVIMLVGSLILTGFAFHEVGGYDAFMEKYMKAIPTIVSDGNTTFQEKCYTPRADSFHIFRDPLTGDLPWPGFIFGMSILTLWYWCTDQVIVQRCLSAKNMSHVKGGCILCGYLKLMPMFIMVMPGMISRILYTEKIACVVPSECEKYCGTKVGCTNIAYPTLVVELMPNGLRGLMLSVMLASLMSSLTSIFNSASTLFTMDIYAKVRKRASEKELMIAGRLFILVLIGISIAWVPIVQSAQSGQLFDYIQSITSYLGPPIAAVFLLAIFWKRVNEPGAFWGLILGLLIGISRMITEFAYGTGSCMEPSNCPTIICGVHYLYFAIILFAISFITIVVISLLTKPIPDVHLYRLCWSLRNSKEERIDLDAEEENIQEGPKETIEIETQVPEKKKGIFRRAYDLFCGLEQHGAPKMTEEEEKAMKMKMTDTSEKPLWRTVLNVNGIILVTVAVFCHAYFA
# Assay explanation: Test of inhibitory activity on SGLT1 ([14C]-AMG uptake in CHO cells expressing human SGLT1)
# Condition details: CHO cells expressing human SGLT1, 0.5 μM [14C]-AMG, 37° C., 1 hour
pIC50: −log10 of the molar value.
Experimental endpoint: pIC50

See these solved cases before continuing.
Smiles structure | Observed
CC[C@@]12CO[C@@](c3ccc(C)c(Cc4ccc(CCCC(=O)NC(C)(C)C(=O)NCCN(C)C)cc4)c3)(O1)[C@H](O)[C@@H](O)[C@@H]2O | 9.24
Cc1ccc([C@]23OC[C@](C)(O2)[C@@H](O)[C@H](O)[C@H]3O)cc1Cc1ccc(CCCC(=O)NC2(C(=O)NCCN(C)C)CCCCC2)cc1 | 9.37
Cc1ccc([C@]23OC[C@](C(C)(C)O)(O2)[C@@H](O)[C@H](O)[C@H]3O)cc1Cc1ccc(CCCC(=O)N[C@H](C(=O)NCCN(C)C)C2CC2)cc1 | 8.79
Cc1ccc([C@]23OC[C@](C(C)(C)O)(O2)[C@@H](O)[C@H](O)[C@H]3O)cc1Cc1ccc(CCCC(=O)NC2(C(=O)NCCN(C)C)CCCCC2)cc1 | 9.33

A: Cc1ccc([C@]23OC[C@](C)(O2)[C@@H](O)[C@H](O)[C@H]3O)cc1Cc1ccc(OCCCC(=O)NC2(C(=O)NCCN(C)C)CCCCC2)cc1
B: Cc1ccc([C@]23OC[C@](C)(O2)[C@@H](O)[C@H](O)[C@H]3O)cc1Cc1ccc(CCCC(=O)NC(C)(C)C(=O)NCCN(C)C)cc1
Req: Param metric = pIC50; output whichever of A , B has the minimum value. Reply briefly: the label of your chosen item.
Resp: B
